target: Mre11 WT (in MRNBD);Rad50NBD (Pyrococcus furiosus;Pyrococcus furiosus, UniProt Q8U1N9;P58301 1-426;1-195+709-882, |internal_change); assay: fluorescence polarization
RECORDED_METRIC: pKd
When answering, recall that pKd equals minus log10 of the concentration in mol/L, and write that number alone.

Record request: pKd value, item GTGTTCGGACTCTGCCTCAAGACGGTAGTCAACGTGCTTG (ssDNA) [FAM 40-mer ssDNA]
6.74
